Target: SSU72 (Homo sapiens)
Sequence (Q9NP77 1-194): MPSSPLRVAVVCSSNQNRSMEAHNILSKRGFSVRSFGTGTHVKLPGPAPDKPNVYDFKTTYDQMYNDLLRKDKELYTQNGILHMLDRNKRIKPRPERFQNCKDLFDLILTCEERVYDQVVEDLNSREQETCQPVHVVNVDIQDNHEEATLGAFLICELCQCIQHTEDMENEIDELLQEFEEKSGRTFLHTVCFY
property-label: pIC50
// field semantics: pIC50 = negative decimal log of concentration (mol/L)

Qu. Quick check: pIC50 on SSU72 (Homo sapiens), item Cn1c(-c2cccc(NC(=O)C(=O)Nc3ccc(-c4ccsc4)cc3)c2)c(I)c2cc(C(=O)O)c(O)cc21 [Example 11a-1, reference compound] ?
Ans. 5.89

Qu. Then what about the molecule O=C(Nc1ccc(-c2ccsc2)cc1)C(=O)Nc1ccc(-c2cc3ccc(-c4nnn[nH]4)nc3n2C2CCC2)cc1 [Example 129] ?
Ans. 4.45

Qu. Request: O=C(Nc1ccc(-c2cc3cc(F)c(-c4nnn[nH]4)cc3n2C2CCC2)cc1)C(=O)Nc1ccc(N2CCOCC2)cc1 [Example 47]
Ans. 7.05

Qu. Next molecule: O=C(Nc1ccc(-c2cc3cc(F)c(-c4nnn[nH]4)cc3n2C2CCC2)cc1)C(=O)Nc1ccc(N2CC3COCC3C2)cc1 (centres unmarked) [Example 114]
Ans. 7.05

###

Target: hERG potassium channel (Homo sapiens)
Construct: host or cells: HEK-293
Sequence (Q12809 whole entry): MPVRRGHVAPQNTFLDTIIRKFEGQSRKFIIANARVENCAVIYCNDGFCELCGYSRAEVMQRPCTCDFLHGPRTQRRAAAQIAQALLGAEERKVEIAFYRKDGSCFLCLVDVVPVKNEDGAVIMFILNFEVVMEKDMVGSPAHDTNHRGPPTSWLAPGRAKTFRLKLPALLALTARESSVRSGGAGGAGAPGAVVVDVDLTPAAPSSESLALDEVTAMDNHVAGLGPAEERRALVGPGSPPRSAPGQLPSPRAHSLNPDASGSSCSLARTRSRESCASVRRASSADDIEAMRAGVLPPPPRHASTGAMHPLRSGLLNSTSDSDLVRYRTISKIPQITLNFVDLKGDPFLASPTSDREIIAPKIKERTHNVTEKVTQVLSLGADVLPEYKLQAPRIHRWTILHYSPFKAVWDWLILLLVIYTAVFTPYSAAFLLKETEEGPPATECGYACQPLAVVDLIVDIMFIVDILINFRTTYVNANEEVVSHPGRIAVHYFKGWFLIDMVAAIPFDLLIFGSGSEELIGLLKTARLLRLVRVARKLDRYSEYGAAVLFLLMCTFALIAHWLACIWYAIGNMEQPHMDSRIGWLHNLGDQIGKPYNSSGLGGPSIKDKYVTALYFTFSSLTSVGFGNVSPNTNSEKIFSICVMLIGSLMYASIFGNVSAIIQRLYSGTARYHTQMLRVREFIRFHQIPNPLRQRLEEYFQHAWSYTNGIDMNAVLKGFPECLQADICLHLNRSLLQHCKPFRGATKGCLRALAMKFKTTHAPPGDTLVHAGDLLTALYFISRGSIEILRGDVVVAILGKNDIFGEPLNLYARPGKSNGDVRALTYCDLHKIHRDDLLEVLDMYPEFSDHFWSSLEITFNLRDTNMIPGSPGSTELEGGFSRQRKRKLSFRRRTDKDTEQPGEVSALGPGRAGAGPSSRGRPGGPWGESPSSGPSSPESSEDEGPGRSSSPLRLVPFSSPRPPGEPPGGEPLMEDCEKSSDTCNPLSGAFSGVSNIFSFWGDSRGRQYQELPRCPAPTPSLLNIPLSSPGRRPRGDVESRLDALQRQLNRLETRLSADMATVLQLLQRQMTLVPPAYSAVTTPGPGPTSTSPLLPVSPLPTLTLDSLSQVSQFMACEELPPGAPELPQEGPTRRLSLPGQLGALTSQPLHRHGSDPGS
Test: hERG manual patch-clamp assay in HEK-293 cells
Format: cell-based
Settings: HEK-293 cells stably expressing the hERG potassium channel, HEK-293 cells stably expressing hERG
Could you please report measured inhibition at 10 µM for the items listed next?
Kindly answer with a numeric value in %, unit omitted.

Qu. Which inhibition at 10 µM reading was recorded for the compound "O=C(Nc1ccc(-c2cc3cc(F)c(-c4nnn[nH]4)cc3n2C2CCC2)cc1)C(=O)Nc1ccc(N2CCC(CO)CC2)cc1" ?
Ans. -0.72

Qu. Item: "CC1(n2c(-c3ccc(NC(=O)C(=O)Nc4ccc(N5CCC6(CCOC6)CC5)cc4)cc3)cc3cc(F)c(-c4nnn[nH]4)cc32)CCC1"
Ans. 8.79

Qu. // query: "O=C(Nc1ccc(-c2cc3cc(F)c(-c4nnn[nH]4)cc3n2C2CCC2)cc1)C(=O)Nc1ccc(N2CCC3(CCOC3)CC2)cc1"
Ans. 16.9

###

Test: Rat PK study (IV 1 mg/kg and PO 5 mg/kg)
Type: in vivo, male SD rats
Conditions: male, SD, rat, plasma, 1 mg/kg; IV, dose 1 mpk; read-out: IV Cl
I'd be grateful if you could share measured clearance for these entries.
Show the value, then the unit it is measured in.

Qu. Recorded clearance of CC1(n2c(-c3ccc(NC(=O)C(=O)Nc4ccc(N5CCC6(CCOC6)CC5)cc4)cc3)cc3cc(F)c(-c4nnn[nH]4)cc32)CCC1 [Example 68] , please.
Ans. 12.6 mL/min/kg

Qu. Note, next up: Cn1c(-c2cccc(NC(=O)C(=O)Nc3ccc(-c4ccsc4)cc3)c2)c(I)c2cc(C(=O)O)c(O)cc21 [Example 11a-1, reference compound]
Ans. 4 mL/min/kg

Qu. Input O=C(Nc1ccc(-c2cc3cc(F)c(-c4nnn[nH]4)cc3n2C2CCC2)cc1)C(=O)Nc1ccc(N2CCC(CO)CC2)cc1 [Example 23]
Ans. 5.45 mL/min/kg
